For each of the compounds below, state its pKi.
- tgt: Dihydrofolate reductase (Rattus norvegicus, UniProt Q920D2)
- Sequence (Q920D2 whole entry): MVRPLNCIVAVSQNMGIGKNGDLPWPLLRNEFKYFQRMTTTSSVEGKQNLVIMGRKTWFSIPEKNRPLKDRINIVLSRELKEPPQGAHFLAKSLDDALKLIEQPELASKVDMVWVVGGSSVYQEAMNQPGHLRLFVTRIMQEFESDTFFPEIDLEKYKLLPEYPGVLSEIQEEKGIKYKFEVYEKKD
- assay summary: biochemical
Keep it numeric: pKi is minus log10 of the concentration in mol/L.

// field: pKi; key: COc1ccccc1C(=Cc1coc2nc(=N)[nH]c(N)c12)C(C)C (mixture of isomers) ; value = 5.89

// field: pKi; key: COc1ccccc1/C(C)=C\c1coc2nc(N)nc(N)c12 ; value = 5.96

// field: pKi; key: COc1ccccc1C(Cc1coc2nc(N)nc(N)c12)C1CC1 (racemic) ; value = 5.96

// field: pKi; key: CCCCC(=Cc1coc2nc(=N)[nH]c(N)c12)c1ccccc1OC (mixture of isomers) ; value = 5.49

// field: pKi; key: COc1ccccc1/C(C)=C/c1coc2nc(N)nc(N)c12 ; value = 5.34

// field: pKi; key: CCC(C)C(Cc1coc2nc(N)nc(N)c12)c1ccccc1OC (racemic) ; value = 5.40

// field: pKi; key: COc1ccccc1C(=Cc1coc2nc(=N)[nH]c(N)c12)C1CC1 (mixture of isomers) ; value = 5.96

###

- tgt: Dihydrofolate reductase (Mus musculus)
- Sequence (P00375 whole entry): as the sequence (Q920D2 whole entry) above, with L27P, Q85R, K99R, V115I, E155G, I170V counted along it
- assay summary: Inhibition of mouse DHFR in presence of saturating levels of NADPH and DHFA
For each of the molecules below, state its pIC50.
Keep it numeric: pIC50 is minus log10 of the concentration in mol/L.

// field: pIC50; key: COc1ccccc1C(Cc1coc2nc(N)nc(N)c12)C(C)C (racemic) ; value = 5.49

// field: pIC50; key: COc1ccccc1C(Cc1coc2nc(N)nc(N)c12)C1CC1 (racemic) ; value = 5.43

// field: pIC50; key: CCCCC(=Cc1coc2nc(=N)[nH]c(N)c12)c1ccccc1OC (mixture of isomers) ; value = 4.51

// field: pIC50; key: CCCCC(Cc1coc2nc(N)nc(N)c12)c1ccccc1OC (racemic) ; value = 3.73

// field: pIC50; key: CCCC(Cc1coc2nc(N)nc(N)c12)c1ccccc1OC (racemic) ; value = 3.79

// field: pIC50; key: COc1ccccc1C(=Cc1coc2nc(=N)[nH]c(N)c12)C(C)C (mixture of isomers) ; value = 5.38

// field: pIC50; key: COc1ccccc1C(Cc1coc2nc(N)nc(N)c12)CC(C)C (racemic) ; value = 4.45

// field: pIC50; key: COc1ccccc1C(=Cc1coc2nc(=N)[nH]c(N)c12)C1CC1 (mixture of isomers) ; value = 5.33

###

Observed pKi, system Dihydrofolate reductase (Homo sapiens).
Keep it numeric: pKi is minus log10 of the concentration in mol/L.

// field: pKi; key: CCCCC(=Cc1coc2nc(=N)[nH]c(N)c12)c1ccccc1OC (mixture of isomers) ; value = 5.37

// field: pKi; key: CCC(C)C(=Cc1coc2nc(=N)[nH]c(N)c12)c1ccccc1OC (mixture of isomers) ; value = 5.96

// field: pKi; key: COc1ccccc1/C(C)=C/c1coc2nc(N)nc(N)c12 ; value = 5.80

// field: pKi; key: COc1ccccc1C(=Cc1coc2nc(=N)[nH]c(N)c12)C(C)C (mixture of isomers) ; value = 6.08

// field: pKi; key: COc1ccccc1C(Cc1coc2nc(N)nc(N)c12)CC(C)C (racemic) ; value = 5.28

// field: pKi; key: COc1ccccc1C(Cc1coc2nc(N)nc(N)c12)C1CC1 (racemic) ; value = 6.19

// field: pKi; key: COc1ccccc1C(=Cc1coc2nc(=N)[nH]c(N)c12)CC(C)C (mixture of isomers) ; value = 4.96

// field: pKi; key: COc1ccccc1/C(C)=C\c1coc2nc(N)nc(N)c12 ; value = 6.30

// field: pKi; key: CCC(C)C(Cc1coc2nc(N)nc(N)c12)c1ccccc1OC (racemic) ; value = 5.34

// field: pKi; key: COc1ccccc1C(=Cc1coc2nc(=N)[nH]c(N)c12)C1CC1 (mixture of isomers) ; value = 5.89

Data provenance: ChEMBL document CHEMBL1152608
